Provide the recorded LD50 at 168 h for the entries that follow.
# procedure text: Acute toxicity in rats (intragastral, 7 days observation, LD50 by Weber's probit analysis)
# Format: in vivo, rat (SIV 50 strain)
# reported conditions: rat, in vivo, po, male rat
Write the number in mg/kg without appending the unit.

The measured LD50 at 168 h associated with CCOC(=O)C=C1SC(N2CCCCC2)C(=O)N1C (single isomer, unassigned) [Compound B] reads 3650

The measured LD50 at 168 h associated with CCOC(=O)C=C1SC(N2CCCCC2)C(=O)N1C (racemic) [Compound A] reads 11000

###

# procedure text: Racemization of (+)-ozolinone in 0.1N hydrochloric acid and in chloroform
# Assay type: physicochemical
# reported conditions: chloroform, same period of time (less than 1 hour); read-out: degree of racemization
# Procedure: Esterification of the known, optically-active (+)-(3-methyl-4-oxo-5N-piperidinothiazolidin-2-ylidene)-acetic acid [(+)-ozolinone (see Federal Republic of Germany Patent Specification No. 26 58 858)] also cannot be carried out with agents which can be used on a large scale because it racemizes under the esterification conditions. Thus, for example, (+)-ozolinone racemizes to an extent of 15% in 0.1N hydrochloric acid in less than 1 hour. […]
property name: degraded at 1 h

The measured degraded at 1 h associated with CN1C(=O)C(N2CCCCC2)SC1=CC(=O)O (single isomer, unassigned; (+)) [(+)-ozolinone] reads ~10%
